test: soluble on expression in E. coli; label from the status in PepcDB or PDB records
QUANTITY KIND: soluble on expression in E. coli

Some entries whose results are on file:
Qu. Which soluble on expression in E. coli value is on record for `MKIRILGSGTSTGVPEIGCTCAVCTSKDPRDCRLRTSALVYTDDATILLDCGPDFREQMLRVPFGKIDAVLISHEHYDHVGGLDDLRPFCRFGEVPIYAETYTAERLRSRMPYCFVEHSYPGVPNIPLREIEPNRPFLVNHTEVLPLRVMHGKLPILGYRIGKLGYITDMLTMPDESFEQLQGIEVLVMNALRIAPHNTHQSLSEALEAVKRIGAKETWLIHMSHHIGLQADVEKQLPPHVHFAFDGLELECLEHHHHHH` ?
Ans. not soluble

Qu. Which soluble on expression in E. coli value is on record for `MSLKKIANELGLSSTTVSRALNGYDDVAAETRERIIDAAKRLGYQPNSLARRLKMGRTDAIALAYPSRPRVLNNSTFLEMISWIGIELGKRGLDLLLIPDEPGEKYQSLIHLVETRRVDALIVAHTQPEDFRLQYLQKQNFPFLALGRSHLPKPYAWFDFDNHAGASLAVKRLLELGHQRIAFVSTDARISYVDQRLQGYVQTMSEAGLMPLAGYLQKADPTRPGGYLAASRLLALEVPPTAIITDCNMLGDGVASALDKAGLLGGEGISLIAYDGLPDDSLLDIAVTPIVQNTRTSVGKQIASMICDLLGGKDPKELQVLWQPEIGEGETEGHHHHHH` ?
Ans. soluble

Qu. Which soluble on expression in E. coli value is on record for `MGSDKIHHHHHHGREEKTVYDFPLEQSLKSDKEVSLNKELLAPYLMCSYDSTLCLIDWTANPMVHVYNMNTGKEMVAFGNKGMGPDDFLSISQMYVDMGKRSLLLYDQSLQTISSFQIDSLAQGSLSKIDCVSAPKLGMNRVYAYSDSIFYGSGTFESGLIAKCNQKEILNQYLPFPHTEQAVNRDVNYLLFQGDLIMKPDKKRFAYLAYECDLLSIQKVVNDTCLESVVHLNTYTPVFENQSTNEVSSVNVSTDSPKGFLRGVATENYVYALYSGQIGKNKAIANEVYVFDWEGRAVKKVILDRWGICISVDSNDERLCLMTKETDGGEERYHYYCYQLN` ?
Ans. not soluble

Qu. Which soluble on expression in E. coli value is on record for `MSDASLKTYQKQWAYQKYWVMAHSQQHYNALRELFKGNQWSEEKVLTFHCLIEEAQAIPPTVKSLRTAYQHVWGYFKKVASQEEKDHFKDLDAQLETKSEEMLCFLQEMTAHYQPSYLLSCRLITKGP` ?
Ans. not soluble

Qu. Which soluble on expression in E. coli value is on record for `MGLLIEGRWHDQWYESGKDGAFQREQAQRRNWVTADGRPGPSGEGGFAAEAGRYHLYVSLACPWAHRTLILRKLKGLEQLIDVSVVSWLMRENGWTFDSAHGSSGDALDHFDFMHQRYTADTADYTGRVTVPVLWDKQQQRIVSNESAEIIRMFNSAFDGLTGNGLDFYPQPLRARIDELNARIYPALNNGVYRAGFATSQQAYETAFDDVFAELDALEALLDKQRYLAGEYLTEADVRLFTTLIRFDAVYHGHFKCNLRRIADYPNLSNWLRELYQWPGIAETVDFAHIKGHYYASHTTINPTGIVPKGPLQDFSRAHDRQRLSGQGVWCRGLEHHHHHH` ?
Ans. not soluble

Qu. Which soluble on expression in E. coli value is on record for `MSNVVVCALYKFVSLPHFESLREPLLSMMEQAEIKGTLLLASEGINGTVAGNQAAIDALLIWLNQQNGLENITYKLSFDDEMPFYRTKVKLKKEIVTMGVEGIDPLKVVGTYVKPKDWNALISDPEVVLVDTRNDYEVQIGTFKNAINPVTETFREFPEYVKQNLDPAKHKKVAMFCTGGIRCEKSTAYLKEQGFEEVYHLEGGILKYLEEVNKAESLWEGECFVFDNRVAVDHDLKKGQYDQCNACRMPITEAEKLTPDYVQGVSCPHCIDKISEEQRKRFVERERQVNLAKSRNEAHIGSDVNHVIEARRQKKEALRKQSAEKNKAKQANALEHHHHHH` ?
Ans. soluble

Qu. Which soluble on expression in E. coli value is on record for `MQGFASQPESSYWYPETLLDWSPETDPDARFNRSSIPLREREVLYTVNDTQQTDAKLVALSALNPNTSGVPSQGGNEFFANTFGFWQYVDLMVYWAGSAGEGIITPPSGDVIDAAHRNGVPILGNVFFPPKVYGGQEEWVDKMLVRGEDGSFPAADKLLEVAEYYGFDGWFINQETEGGTPETAKDMQEFLLYLQENKPEGMHIMWYDSMISNGDIRWQNYLTDENAMFFQAGNRKVADSMFLNFWWWNHSQERSKQKAASLGRSPYDLYAGIDVEANGTNTYVNWQQVFPEGGEPHTSLGIYRPDWAFKSTDTMRDFYDREQLFWVGPSGNPAKVDEHAEWKGMATYFPEKTVINELPFVTHFNTGSGQFFAINGKTKLEHHHHHH` ?
Ans. not soluble

Qu. Which soluble on expression in E. coli value is on record for `MSLYKVYGDYQSGNCYKVKLMLSLLGRPYEWHPVDILKGETETPEFLAMNPNGKVPVLELEDGSYLWESNAILNYLADGSEFLPSEPRLRTQVLQWQFFEQYSHEPYIAVARFIQFYLGLPDERLDEYRKLHKGGYKALKVMERQLQMTPYLVGEQYSIADVALYAYTHVAQQGGFDLADYPAVRAWLERVSSHPRHVPMVGEGHHHHHH` ?
Ans. soluble

Continuing:
Qu. Which soluble on expression in E. coli value is on record for `MGSDKIHHHHHHMETIGQTLAKKDNHKYDTEKMTQAILSDQEIANFIAAHHLSKEQIKISLPKFNQYRLERTRFENHDQAYIAKGYQPLLVMNEGYADVAYKETKELIAAKKTQAISDRINVVSLPRSYKNISFDDINLDDVKRLDVFKRVADFVEQYPNPEQKGLYLYGDMGIGKSYLMAAMAHELSEQRGAATTLLHFPSFTIDVKNAINTGTVKKEIDAVKTADILILDDIGAEQSTSWIRDEVLQVILQYRMLEELPTFFTSNYSFKDLEAKLANIKGSDETWQAKRVMERIRYLAKEIHLEGENRR` ?
Ans. not soluble

Qu. Which soluble on expression in E. coli value is on record for `MTSQRCRRRYFMMIRERIEEKLRAAFQPVFLEVVDESYRHNVPAGSESHFKVVLVSDRFTGERFLNRHRMIYSTLAEELSTTVHALALHTYTIKEWEGLQDTVFASPPCRGAGSIA` ?
Ans. soluble

Qu. Which soluble on expression in E. coli value is on record for `MAHHHHHHMPSSPFPTLPTRATQHHHHCSHTRVHQICPAVPSLSALSNILTVSAMSAKTAAAPSERSFVDRFVRSHAGAATAAGILEIGFFHPFDTIAKRLMANKGSIMRGSTGET` ?
Ans. soluble

---

test: soluble on expression in E. coli; label from the status in PepcDB or PDB records
QUANTITY KIND: soluble on expression in E. coli

Qu. Which soluble on expression in E. coli value is on record for `MNSTQSRRVGLYGTGRAAAQLVGAIEASPHTLTTAIVFFDEQAGQDIGTLTGGRATGITATTDLEGAIRSGDFDVLAYAGLKGEVLHRAMELCADSGVDLVHACFVHPRVKLDPEMYSRLQKRAEETGARIVGTGMLPGFWLDVLPALLSSALPAPVSIIGESRSDITAWGRGVLADEMGLGTLADGQPGPVGGVLHESAEMIADILGLTGYESKVYGGYVTAHAATEVAGIQISPGDRVGFDEAATVVHDGRERVRIAWKGLPKGSFEGYERSLTVTAIGGDGSECTLSITPALDPYPGTAARIVHAVGALGALPGGQHTPVQLGI` ?
Ans. not soluble

Qu. Which soluble on expression in E. coli value is on record for `MEVLVIAPRICVNVIRTLPIGLPVGVEKRLRAFDPDVIHLASPYAFAARAAFIAQKMAVPCVAVYQTDVAAYQQHYHLTWLKNLEHHHHHH` ?
Ans. not soluble

Qu. Which soluble on expression in E. coli value is on record for `MGSDKIHHHHHHMLEFPALRPFLWSGRYNRPLMPLTYLTRIAQTPAPTFQEEARAELIARLWSDLGYVTERDEVGNVLTRITPPGTEGRPALLLAAHLDTVFGGQTDVTVHDEGQRLRGPGVGDNSASLAVVTAMLRDFRTAPPLLRRPLWVAANVGEEGLGDLRGAKHLLAAHRPQLGAFVAVDGYLGVAVTQAVGVRRYRAQFVGPGGHSWGDQAPSALHALGLAISGLYALHLPAQPRTTLNVGTAAGGNSVNSIAGQAELLLDLRSLGADELAALDSRAQDVLHRAARDAGVSLRLERVGDRPGGDLHTGALLGMAHAAAREVRVDLRLAASSTDANAAAPHVLPALAFGVYRGGNAHREDEWVEKRSLAPGLTALKRLVALYQAAPLA` ?
Ans. not soluble

The reported numbers originate from the DeepSol protein solubility set.
